# Tested on: SK-OV-3 ovarian
# Assay: NCI-60 one-dose screen, 48 h (100 = growth as untreated, 0 = no growth, -100 = all killed)
# Test Parameters: 10 µM unless noted
Compounds without any hit were thinned out: in the full panel of roughly 83,000, 20% have a hit.
Reported growth values follow for various molecules
Give just the number in %; leave the unit off.

Entry under review: CCOC(=O)/C=c1\sc2n(c1=O)C1C(NN=2)N(CC)C(=O)N1CC (configuration not stated) . Reported growth?
89.2

---

# Test system: SF-268 CNS
# Assay: NCI-60 one-dose screen, 48 h (100 = growth as untreated, 0 = no growth, -100 = all killed)
# Test Parameters: 10 µM unless noted
The panel holds about 83,000 compounds, 20% with a hit somewhere; the sample as a whole holds those more often.
// thresholds for growth classes: low class: < 60%; middle class: ≥ 60% and < 90%; high class: ≥ 90%

Solved cases below.
CN(c1ccc(F)cc1)S(=O)(=O)c1ccc(-c2cnc(C3CC3)o2)cc1 : middle class
O=C(CCCCCCN1CC(=O)N2[C@@H](c3cc(F)cc(F)c3)c3[nH]c4ccccc4c3C[C@H]2C1=O)NO : middle class
COc1ccc(CCN2C(=O)CSC2=S)cc1OC : high class

Categorize the following entry: CCOC(=O)c1nn(-c2ccccc2)c(=O)c2c(N)c(C#N)c(-c3cccs3)cc12
middle class

Field: class (growth) — entry: CS(=O)(=O)c1ccc2c(c1)c1c(n2S(=O)(=O)c2ccc(Cl)cc2)CCCC1
middle class

// bin(item) where item = COc1ccc([C@@H]2[C@@H](O)C(=O)N2c2cc(OC)c(OC)c(OC)c2)cc1
low class

// return the class label for CCOc1c(C#N)c(Nc2ccc(S(N)(=O)=O)cc2)c(C#N)c2nnc(C)n12
high class

Given CC1OC(O[C@@H]2[C@H](O)C(CO)OC(O[C@H]3COC(O[C@H]4CC[C@]5(C)[C@H]6CC[C@]78OC[C@@]9(CCC(C)(C)C[C@H]97)[C@H](O)C[C@@]8(C)[C@]6(C)CC[C@H]5C4(C)C)[C@@H](OC4OC(CO)[C@@H](O)[C@@H](O)[C@@H]4O)[C@@H]3O)[C@H]2OC2OC[C@@H](O)[C@@H](O)[C@@H]2O)[C@@H](O)[C@@H](O)[C@H]1O (stereo not given in full) , name the class its growth places it in.
low class

---

# System: NCI-H322M lung
# Assay: NCI-60 one-dose screen, 48 h
# Test Parameters: 10 µM unless noted
Compounds without any hit were thinned out: in the full panel of roughly 83,000, 20% have a hit. Calls of active or inactive are those of the source. The calls were made as follows: active = growth percent below 10; inactive = the rest.
Assign a class; possible classes are active, inactive

Some solved cases for reference:
O=C(Nc1cccc(Cl)c1)Nc1nc2ccc([N+](=O)[O-])cc2s1 : active
COc1ccc(NC(=O)[C@H](C)N)cc1C(=O)Nc1cccc(-c2cc(=O)c3c(OC)c(OC)c(OC)cc3o2)c1 : inactive
O=C(Nc1cccc(-c2nc(-c3ccc(NC(=O)c4cccs4)cc3Cl)no2)c1)Nc1ccc(NC(=O)C2CC2)c(C(F)(F)F)c1 : active
O=C1[C@H]2Cc3c([nH]c4ccccc34)[C@@H](c3c(Cl)cccc3Cl)N2C(=O)CN1C1CCN(Cc2ccccc2)CC1 : inactive
O=S(=O)(Nc1ccc(I)c(Cl)c1)c1ccc(-c2cnc(C3CC3)o2)cc1 : inactive

Which result was noted for this molecule in the test: O=C1c2c(c3c4cccnc4[nH]c3c3ccc4ccccc4c23)C(=O)N1CCN1CCCCC1
inactive

Please state the recorded outcome for this molecule: CCN1C(=O)N(CC)C2SC(N/N=C/c3cccs3)=NC21 (centres undefined)
inactive

Please let me know the test result on file for O=S(=O)(Nc1ccc(-n2cnc3cc(-c4ccc(O)cc4)ccc32)cc1)C1CC1 .
inactive

Values were extracted from PubChem BioAssay (NCI).
